Target: hMAO-A (Homo sapiens)
Sequence (P21397 whole entry): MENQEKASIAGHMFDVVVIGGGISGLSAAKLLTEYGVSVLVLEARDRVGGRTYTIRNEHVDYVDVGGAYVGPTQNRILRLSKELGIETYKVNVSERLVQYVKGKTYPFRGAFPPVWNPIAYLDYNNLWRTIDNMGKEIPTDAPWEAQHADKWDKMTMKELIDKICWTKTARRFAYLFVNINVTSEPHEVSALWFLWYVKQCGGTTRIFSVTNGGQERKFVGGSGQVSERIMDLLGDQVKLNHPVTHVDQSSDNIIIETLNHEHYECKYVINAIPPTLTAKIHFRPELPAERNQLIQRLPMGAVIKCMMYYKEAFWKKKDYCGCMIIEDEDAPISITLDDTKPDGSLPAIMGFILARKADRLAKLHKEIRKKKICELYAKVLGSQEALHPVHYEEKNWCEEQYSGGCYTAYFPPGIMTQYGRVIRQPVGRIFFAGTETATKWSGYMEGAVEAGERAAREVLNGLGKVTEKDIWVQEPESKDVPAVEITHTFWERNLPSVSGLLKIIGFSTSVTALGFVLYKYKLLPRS
pIC50: −log10 of the molar value.
Label rule, in plain words: pIC50 of 5 and up is yes (1), under 5 is no (0).

Solved cases (8 shown):
COc1ccc2c(c1)OC1c3ccc(O)cc3OCC21 (stereo not shown) [Compound 8, 3-hydroxy-9-methoxypterocarpan] | no (0)
COc1cc2c(cc1O[C@@H]1O[C@H](CO)[C@@H](O)[C@H](O)[C@H]1O)O[C@H](c1ccccc1)[C@@H](O)C2=O [Compound 2] | no (0)
COc1cc([C@H]2OC[C@H]3[C@@H]2CO[C@@H]3c2cc(OC)c(O)c(OC)c2)cc(OC)c1O [Compound 5, (+)-syringaresinol] | no (0)
COc1ccc2c(c1)O[C@H]1c3ccc(OC)cc3OC[C@@H]21 [Compound 13, 3,9-dimethoxypterocarpan] | yes (1)
COc1cc2c(cc1O)O[C@H](c1ccccc1)[C@@H](O)C2=O [Compound 6, (2R,3R)-3,7-dihydroxy-6-methoxyflavanone] | no (0)
C[C@@H]1O[C@@H](OC[C@H]2O[C@@H](Oc3c(-c4ccc(O)c(O)c4)oc4cc(O)cc(O)c4c3=O)[C@H](O)[C@@H](O)[C@@H]2O)[C@H](O)[C@H](O)[C@H]1O [Compound 1, rutin] | no (0)
COc1ccc(-c2coc3cc(O[C@@H]4O[C@H](CO)[C@@H](O)[C@H](O)[C@H]4O)ccc3c2=O)cc1 [Compound 4, ononin] | no (0)
COc1cc(O)c2c(=O)c(-c3ccc(O)cc3)coc2c1 [Compound 9, prunetin] | yes (1)

input: State whether the measured pIC50 reaches 5, counting equality as reaching it, for COc1cc([C@H]2OC[C@H]3[C@@H]2CO[C@@H]3c2cc(OC)c(O[C@@H]3O[C@H](CO)[C@@H](O)[C@H](O)[C@H]3O)c(OC)c2)cc(OC)c1O [Compound 3]
output: no (0)

###

Molecular target: hMAO-B (Homo sapiens)
Sequence (P27338 1-520): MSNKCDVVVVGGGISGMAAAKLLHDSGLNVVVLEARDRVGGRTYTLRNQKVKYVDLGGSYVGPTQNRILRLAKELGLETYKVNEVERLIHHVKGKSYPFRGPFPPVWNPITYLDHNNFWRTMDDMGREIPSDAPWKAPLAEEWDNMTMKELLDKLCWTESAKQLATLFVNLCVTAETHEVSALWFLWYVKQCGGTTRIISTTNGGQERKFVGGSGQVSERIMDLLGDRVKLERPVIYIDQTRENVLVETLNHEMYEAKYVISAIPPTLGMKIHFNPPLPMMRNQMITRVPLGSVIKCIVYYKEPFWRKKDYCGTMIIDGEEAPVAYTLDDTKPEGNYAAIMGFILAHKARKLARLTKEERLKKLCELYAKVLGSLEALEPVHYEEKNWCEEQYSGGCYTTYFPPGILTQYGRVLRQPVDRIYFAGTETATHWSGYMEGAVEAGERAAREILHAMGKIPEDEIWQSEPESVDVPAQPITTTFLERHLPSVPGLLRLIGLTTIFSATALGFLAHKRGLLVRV
recorded_endpoint: Ki (nM)
Numbers only, in nM.

input: Which Ki is reported for this compound? COc1ccc2c(c1)OC1c3ccc(O)cc3OCC21 (stereo not shown) [Compound 8, 3-hydroxy-9-methoxypterocarpan]
output: 197

###

Biological target: AChE (Electrophorus electricus, UniProt O42275)
Construct: purchased Sigma-Aldrich
Sequence (O42275 24-633): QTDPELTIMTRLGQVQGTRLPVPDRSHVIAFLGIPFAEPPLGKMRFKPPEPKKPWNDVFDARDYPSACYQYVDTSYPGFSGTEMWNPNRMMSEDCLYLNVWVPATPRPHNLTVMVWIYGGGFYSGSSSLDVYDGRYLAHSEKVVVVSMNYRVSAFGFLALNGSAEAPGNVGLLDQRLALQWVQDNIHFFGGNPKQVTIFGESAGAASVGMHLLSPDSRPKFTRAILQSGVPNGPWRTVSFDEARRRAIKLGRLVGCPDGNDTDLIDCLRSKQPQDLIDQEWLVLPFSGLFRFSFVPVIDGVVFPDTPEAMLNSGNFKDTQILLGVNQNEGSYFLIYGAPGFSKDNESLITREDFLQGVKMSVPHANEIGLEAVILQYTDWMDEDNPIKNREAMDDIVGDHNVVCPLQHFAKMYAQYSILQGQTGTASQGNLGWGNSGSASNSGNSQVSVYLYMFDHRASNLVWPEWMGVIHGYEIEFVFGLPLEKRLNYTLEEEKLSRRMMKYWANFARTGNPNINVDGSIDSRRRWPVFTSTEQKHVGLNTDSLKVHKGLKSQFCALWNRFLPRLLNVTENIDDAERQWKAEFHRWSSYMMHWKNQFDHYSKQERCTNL
Test: AChE inhibition (Ellman method)
Type: biochemical
Conditions: read-out: Residual Activity at 10 µM (%) AChE
What remaining activity at 10 µM was measured for each of the following?
Give bare numbers, in %.

The examples below pair each entry with its known result.
COc1cc2c(cc1O[C@@H]1O[C@H](CO)[C@@H](O)[C@H](O)[C@H]1O)O[C@H](c1ccccc1)[C@@H](O)C2=O [Compound 2] | 84.8
COc1cc(O)c2c(=O)c(-c3ccc(O)cc3)coc2c1 [Compound 9, prunetin] | 83.2
COc1cc([C@H]2OC[C@H]3[C@@H]2CO[C@@H]3c2cc(OC)c(O[C@@H]3O[C@H](CO)[C@@H](O)[C@H](O)[C@H]3O)c(OC)c2)cc(OC)c1O [Compound 3] | 95.2
COc1ccc2c(c1)O[C@H]1c3ccc(OC)cc3OC[C@@H]21 [Compound 13, 3,9-dimethoxypterocarpan] | 81
COc1ccc2c(c1)OC[C@H]1c3cc4c(cc3O[C@@H]21)OCO4 [Compound 12, 3-methoxy-8,9-methylenedioxypterocarpan] | 84.9

Proceeding to the next compound to report its remaining activity at 10 µM.
input: AChE (Electrophorus electricus, UniProt O42275) / remaining activity at 10 µM / COc1ccc(-c2coc3cc(O[C@@H]4O[C@H](CO)[C@@H](O)[C@H](O)[C@H]4O)ccc3c2=O)cc1 [Compound 4, ononin] : value?
output: 86.1
